Tested on: DMBA-induced mammary carcinomas
protocol.description: DMBA-induced mammary carcinoma model, oral treatment, tumor weight by palpation (Experiment 1)
Type: in vivo, female Sprague-Dawley rats
stated.conditions: 4 × 100 mg/kg per os, treatment day 0, 3, 7, 10; >100 = tumor regression
For each record, write down the corresponding DMBA (G.I.I. %).
Give just the numeric value; % need not be written.

What value of DMBA (G.I.I. %) has been reported for the following compound? CCCCCCCCCCCCCCCCOP(=O)([O-])OC1C[N+]2(C)CCC1CC2 (centres unmarked)
105

What value of DMBA (G.I.I. %) has been reported for the following compound? CCCCCCCCCCCCCCCCOP(=O)([O-])OCC1CCC[N+]1(C)C (centres unmarked)
99

What value of DMBA (G.I.I. %) has been reported for the following compound? CCCCCCCCCCCCCCCCCCOP(=O)([O-])OCC1CCCC[N+]1(C)C (centres unmarked)
125

What value of DMBA (G.I.I. %) has been reported for the following compound? CCCCCCCCCCCCCCCCCCOP(=O)([O-])OC1CC[N+](C)(C)CC1
119

What value of DMBA (G.I.I. %) has been reported for the following compound? CCCCCCCCCCCCCCCCCCOP(=O)([O-])OCC1CCC[N+]1(C)C (centres unmarked)
116
